Reported pEC50 values are given for each entry in this list.
assayedSystem: human GLP-1 receptor (hGLP-1R) (Homo sapiens)
Construct: expressed in transfected cells
Sequence (P43220 24-463): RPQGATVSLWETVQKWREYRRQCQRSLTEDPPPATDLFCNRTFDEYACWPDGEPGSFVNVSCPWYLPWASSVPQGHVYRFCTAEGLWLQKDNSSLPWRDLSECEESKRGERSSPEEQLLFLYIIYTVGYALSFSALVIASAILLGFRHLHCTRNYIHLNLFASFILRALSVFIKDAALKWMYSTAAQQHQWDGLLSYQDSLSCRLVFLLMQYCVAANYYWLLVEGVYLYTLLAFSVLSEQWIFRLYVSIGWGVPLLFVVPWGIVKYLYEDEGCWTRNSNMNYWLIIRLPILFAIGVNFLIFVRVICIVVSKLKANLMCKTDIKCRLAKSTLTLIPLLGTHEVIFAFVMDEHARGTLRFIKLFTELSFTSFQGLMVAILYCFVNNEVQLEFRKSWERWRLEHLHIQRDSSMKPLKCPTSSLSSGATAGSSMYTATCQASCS
testDetails: GLP-1 receptor assay, method A (CRE-luciferase reporter, BHK cells)
Assay type: cell-based
statedConditions: method A, absence of HSA; read-out: hGLP-1R Potency, no HSA, EC50
pEC50: −log10 of the molar value. Numbered stars: 1 amine (or outer) side, 2 acyl side, 3 side chain; on linkers, the order of the positions; unused ones are H or OH. Square brackets hold non-standard residues; d marks the D form. Side chains are listed from the residue outwards. * marks the point of attachment. C18 diacid = O=C(O)CCCCCCCCCCCCCCCCC(=O)*; C16 diacid = O=C(O)CCCCCCCCCCCCCCC(=O)*; γGlu = O=C(O)[C@H](CCC(=O)[*:2])N[*:1]; AEEA = NCCOCCOCC(=O)O; Aib = CC(C)(N)C(=O)O

substance	pEC50
Y[Aib]EGTFTSDYSILLEEQAAREFIEWLLAGGPSSGEASHLSTAQTQRLSAK([AEEA-AEEA-γGlu-C18 diacid])LHRLATLPRTETGSGSP-NH2 [Compound 79]	10.41
H[Aib]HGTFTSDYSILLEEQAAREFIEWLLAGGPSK([AEEA-AEEA-γGlu-C18 diacid])GAGQAPGQAPGASHLSTAQTQRLSAELHELATLPRTETGSGSP-NH2 [Compound 47]	11.50
Y[Aib]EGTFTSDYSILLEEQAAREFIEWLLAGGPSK([AEEA-AEEA-γGlu-C16 diacid])GEASELSTAALGRLSAELHELATLPRTETGSGSP-NH2 [Compound 11]	10.98
H[Aib]HGTFTSDYSILLEEQAAREFIEWLLAGGPSSGEASHLSTAALGRLSAELHK([AEEA-AEEA-γGlu-C18 diacid])LATLPRTETGSGSP-NH2 [Compound 88]	11.39
Y[Aib]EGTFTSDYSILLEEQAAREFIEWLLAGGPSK([AEEA-AEEA-γGlu-C18 diacid])GGGGEGGGEGEASHLSTAQTQRLSAELHELATLPRTETGSGSP-NH2 [Compound 40]	10.63
H[Aib]HGTFTSDYSILLEEQAAREFIEWLLAGGPSRGAPPPSGGGEASHLSTQTQGRLSAELHK([AEEA-AEEA-γGlu-C18 diacid])LATLPRTETGSGSP-NH2 [Compound 71]	11.48
Y[Aib]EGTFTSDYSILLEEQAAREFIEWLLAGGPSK([AEEA-AEEA-γGlu-C18 diacid])GEASELSTAQLGRLSAELHRLATLPRTETGSGSP-NH2 [Compound 27]	10.58
Y[Aib]EGTFTSDYSILLEEQAAREFIEWLLAGGPSSGALAQTLAQTLASHLSTAQTQRLSAELHK([AEEA-AEEA-γGlu-C18 diacid])LATLPRTETGSGSP-NH2 [Compound 48]	10.19
Y[Aib]EGTFTSDYSILLEEQAAREFIEWLLAGGPSSGAGQAPGQAPGASHLSTAQTQRLSAELHQLK([AEEA-AEEA-γGlu-C18 diacid])TLPRTETGSGSP-NH2 [Compound 102]	10.96
Y[Aib]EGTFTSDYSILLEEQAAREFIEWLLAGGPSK([AEEA-AEEA-γGlu-C18 diacid])GAEASELSTAALGRLSAELHELATLPRTETGSGSP-NH2 [Compound 32]	10.56
Y[Aib]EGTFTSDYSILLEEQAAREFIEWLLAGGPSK([AEEA-AEEA-γGlu-C16 diacid])GEASELSTAALGRLSAELHRLATLPRTETGSGSP-NH2 [Compound 18]	10.28
